Exercise: for every item that follows, state its recorded pEC50.
# experimental.target: TYK2 (Homo sapiens, UniProt P29597)
# Construct: JAK1 (aa 850-1154) and TYK2 (aa 871-1187) are expressed with an N-terminally fused GST-tag; GST (N)
# Sequence (P29597 871-1187): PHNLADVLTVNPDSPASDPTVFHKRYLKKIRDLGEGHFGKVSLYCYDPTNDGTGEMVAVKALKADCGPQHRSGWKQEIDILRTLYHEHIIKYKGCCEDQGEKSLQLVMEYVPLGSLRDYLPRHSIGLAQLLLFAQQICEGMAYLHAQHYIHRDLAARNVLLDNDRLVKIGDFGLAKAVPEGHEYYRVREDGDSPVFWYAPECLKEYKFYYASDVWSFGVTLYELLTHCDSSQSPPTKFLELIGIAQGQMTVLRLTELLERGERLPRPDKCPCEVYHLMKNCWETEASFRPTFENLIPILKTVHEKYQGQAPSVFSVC
# test.name: JAK kinase assay (HTRF, phosphorylation of synthetic peptide), TYK2
# test.conditions: catalytic domain, ATP at Km (13 μM); read-out: TYK2 kinase inhibitory activity (EC50)
pEC50: −log10 of the molar value.

1. N#CCCCN(C1CCC1)S(=O)(=O)N1CCN(c2ncnc3[nH]ccc23)CC12CC2 ... 6.30 to 7.00
2. CN(Cc1cccc(S(N)(=O)=O)c1)S(=O)(=O)N1CCN(c2ncnc3[nH]ccc23)CC12CC2 ... > 7.00
3. CN(Cc1cccc(F)c1)S(=O)(=O)N1CCN(c2ncnc3[nH]ccc23)CC12CC2 ... 6.30 to 7.00
4. O=S(=O)(N(CCc1ccccc1)CCc1ccc(F)cc1)N1CCN(c2ncnc3[nH]ccc23)CC12CC2 ... < 6.30
5. CN(CC1CCCCC1)S(=O)(=O)N1CCN(c2ncnc3[nH]ccc23)CC12CC2 ... 6.30 to 7.00
6. N#CCN(CC1CCS(=O)(=O)CC1)S(=O)(=O)N1CCN(c2ncnc3[nH]ccc23)CC12CC2 ... > 7.00

Batch of 2 compounds: report pEC50 for each.
1. CN(CC1CCN(C(=O)CCO)C1)S(=O)(=O)N1CCN(c2ncnc3[nH]ccc23)CC12CC2 (centres unmarked)
2. CN(CC1CC(=O)C1)S(=O)(=O)N1CCN(c2ncnc3[nH]ccc23)CC12CC2

**Result**
["< 6.30", "6.30 to 7.00"]

----------
# experimental.target: JAK3 (Homo sapiens)
# Construct: All four purified enzymes contain only the catalytic domain; His (N)
# Sequence (P52333 822-1111 limits assumed): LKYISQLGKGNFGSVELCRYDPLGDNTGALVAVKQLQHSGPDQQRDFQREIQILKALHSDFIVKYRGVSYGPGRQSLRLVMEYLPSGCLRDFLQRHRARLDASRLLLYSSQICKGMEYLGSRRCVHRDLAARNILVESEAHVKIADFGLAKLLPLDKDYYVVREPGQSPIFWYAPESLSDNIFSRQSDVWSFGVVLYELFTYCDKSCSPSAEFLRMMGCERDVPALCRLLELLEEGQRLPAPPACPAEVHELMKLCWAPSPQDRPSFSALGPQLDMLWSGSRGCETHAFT
# test.name: JAK kinase assay (HTRF, phosphorylation of synthetic peptide), JAK3
# test.conditions: catalytic domain, ATP at Km (2 μM); read-out: JAK3 kinase inhibitory activity (EC50)
property: EC50

Solved entries:
1. N#CCCNS(=O)(=O)N1CCN(c2ncnc3[nH]ccc23)CC12CC2 [Int 40] ... < 100 nM
2. CN(CCC1CCCCC1)S(=O)(=O)N1CCN(c2ncnc3[nH]ccc23)CC12CC2 [Example 11] ... 100 to 500 nM
3. COC(=O)CN(C)S(=O)(=O)N1CCN(c2ncnc3[nH]ccc23)CC12CC2 [Example 34] ... < 100 nM
4. CN(CCn1cccc1)S(=O)(=O)N1CCN(c2ncnc3[nH]ccc23)CC12CC2 [Example 26] ... < 100 nM
5. N#CCCN(CC#N)S(=O)(=O)N1CCN(c2ncnc3[nH]ccc23)CC12CC2 [Example 171] ... < 100 nM
6. CN(C[C@@H]1CC(F)(F)CN1C=O)S(=O)(=O)N1CCN(c2ncnc3[nH]ccc23)CC12CC2 [Example 157] ... < 100 nM
7. CCCN(CCc1ccccc1)S(=O)(=O)N1CCN(c2ncnc3[nH]ccc23)CC12CC2 [Example 7] ... 100 to 500 nM
8. O=S1(=O)CCC(CNS(=O)(=O)N2CCN(c3ncnc4[nH]ccc34)CC23CC3)C1 (centres unmarked) [Int 37] ... < 100 nM
9. O=S(=O)(N1CCCCC1)N1CCN(c2ncnc3[nH]ccc23)CC12CC2 [Example 38] ... 100 to 500 nM
10. CN(C[C@H]1CCCN1S(=O)(=O)CCCC#N)S(=O)(=O)N1CCN(c2ncnc3[nH]ccc23)CC12CC2 [Example 182] ... < 100 nM

Batch of 4 molecules: report EC50 for each.
1. N#CCN(CCO)S(=O)(=O)N1CCN(c2ncnc3[nH]ccc23)CC12CC2 [Example 108]
2. O=S(=O)(N(CCO)CCc1ccccc1)N1CCN(c2ncnc3[nH]ccc23)CC12CC2 [Example 25]
3. CN(CCn1cccn1)S(=O)(=O)N1CCN(c2ncnc3[nH]ccc23)CC12CC2 [Example 66]
4. CN(CCO)S(=O)(=O)N1CCN(c2ncnc3[nH]ccc23)CC12CC2 [Example 109]

**Result**
1: < 100 nM; 2: < 100 nM; 3: < 100 nM; 4: 100 to 500 nM

Batch of 3 molecules: report EC50 for each.
1. CN(CC1CCN(C=O)C1)S(=O)(=O)N1CCN(c2ncnc3[nH]ccc23)CC12CC2 (centres unmarked) [Example 128]
2. CN(CC1CCN(C(=O)C(O)CO)C1)S(=O)(=O)N1CCN(c2ncnc3[nH]ccc23)CC12CC2 (centres unmarked) [Example 127]
3. CN(CC1CCN(C(=O)CCO)C1)S(=O)(=O)N1CCN(c2ncnc3[nH]ccc23)CC12CC2 (centres unmarked) [Example 123]

**Result**
1: < 100 nM; 2: 100 to 500 nM; 3: 100 to 500 nM
